Test: Compound toxicity, ATPLite total ATP levels
Type: cell-based
Conditions: human, HepAD38 cells; three days after compound addition; concentration reducing total ATP levels by 50% relative to no drug controls; class symbols

{"compound": "CCS(=O)(=O)NC[C@@]1(O)CC2CC[C@@H](C1)[C@H]2S(=O)(=O)c1cc(C(=O)Nc2cc(F)c(F)c(F)c2)ccc1Cl", "CC50 at 3 days": "> 25 µM"}
{"compound": "O=C1NC[C@]2(CC3CC[C@@H](C2)[C@H]3S(=O)(=O)c2cc(C(=O)Nc3cc(F)c(F)c(F)c3)ccc2Cl)O1", "CC50 at 3 days": "> 25 µM"}
{"compound": "NC1CC2CC[C@@H](C1)[C@H]2S(=O)(=O)c1cc(C(=O)Nc2cc(F)c(F)c(F)c2)ccc1Cl (stereo partly shown)", "CC50 at 3 days": "10 to 25 µM"}
{"compound": "O=C(Nc1cc(F)c(F)c(F)c1)c1ccc(Cl)c(S(=O)(=O)[C@H]2CC3CCC(C2)[C@]3(O)c2nccs2)c1", "CC50 at 3 days": "10 to 25 µM"}
{"compound": "O=C1NC[C@]2(O1)C1CCC2C[C@@H](S(=O)(=O)c2cc(C(=O)Nc3cc(F)c(F)c(F)c3)ccc2Cl)C1", "CC50 at 3 days": "> 25 µM"}
{"compound": "C[C@]1(S(=O)(=O)c2cc(C(=O)Nc3cc(F)c(F)c(F)c3)ccc2Cl)CC[C@@H](O)CC1", "CC50 at 3 days": "> 25 µM"}
{"compound": "O=C(Nc1cc(F)c(F)c(F)c1)c1ccc(Cl)c(S(=O)(=O)[C@H]2CC[C@H](O)CC2)c1", "CC50 at 3 days": "> 25 µM"}

---

Assay: Compound toxicity, ATPLite total ATP levels
Format: cell-based
Details: human, HepAD38 cells; three days after compound addition; concentration reducing total ATP levels by 50% relative to no drug controls; class symbols

{"smiles_input": "O=C(Nc1cc(F)c(F)c(F)c1)c1ccc(Cl)c(S(=O)(=O)[C@H]2CC[C@@H](O)CC2)c1", "CC50 at 3 days": "> 25 µM"}
{"smiles_input": "C[C@]1(O)C2CCC1C[C@H](S(=O)(=O)c1cc(C(=O)Nc3cc(F)c(F)c(F)c3)ccc1Cl)C2", "CC50 at 3 days": "> 25 µM"}
{"smiles_input": "N#C[C@]1(CO)CC2CC[C@@H](C1)[C@H]2S(=O)(=O)c1cc(C(=O)Nc2cc(F)c(F)c(F)c2)ccc1Cl", "CC50 at 3 days": "10 to 25 µM"}
{"smiles_input": "O=C(Nc1cc(F)c(F)c(F)c1)c1ccc(Cl)c(S(=O)(=O)[C@H]2C3CC[C@H]2C[C@](O)(COCCO)C3)c1", "CC50 at 3 days": "> 25 µM"}
{"smiles_input": "CC(=O)[C@]1(O)CC2CC[C@@H](C1)[C@H]2S(=O)(=O)c1cc(C(=O)Nc2cc(F)c(F)c(F)c2)ccc1Cl", "CC50 at 3 days": "10 to 25 µM"}
{"smiles_input": "O=C(Nc1cc(F)c(F)c(F)c1)c1ccc(Cl)c(S(=O)(=O)C2CC[C@H](O)[C@@H](O)CC2)c1", "CC50 at 3 days": "> 25 µM"}
{"smiles_input": "O=C(Nc1cc(F)c(F)c(F)c1)c1ccc(Cl)c(S(=O)(=O)[C@H]2CC3CCC(C2)[C@]3(O)c2ncc[nH]2)c1", "CC50 at 3 days": "10 to 25 µM"}
